# target of assay: acetylcholine receptor
# test method notes: SPR, receptor immobilized on CM5 chip, peptide 10 uM
Give Binding affinity (RU) for every item shown.
Please reply with the bare figure in RU and do not write the unit itself.

Query: So what's the measured Binding affinity (RU) for this one? KKTNGR [6mer-1-875]
Reply: 33

Query: # iterate: KRSRQK [6mer-1-284]
Reply: 145

Query: Proceed to RSVQKK [6mer-2-454]
Reply: 133

Query: Next up: KLQTKK [6mer-2-425]
Reply: 145
